measured target: T1, SinR S43A (Bacillus subtilis, UniProt P06533 1-111, S43A)
T1 sequence: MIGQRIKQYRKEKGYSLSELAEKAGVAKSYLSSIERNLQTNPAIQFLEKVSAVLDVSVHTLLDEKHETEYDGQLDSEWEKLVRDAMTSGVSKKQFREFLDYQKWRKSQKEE
experiment: fluorescence polarization; 10 mM Tris-HCl pH 8.0, 100 mM NaCl, 1 mM EDTA; 10 nM labeled duplex, SinR diluted from 20 uM; temperature not stated
condition parameters: protein: recombinant; tags: none (pET24a, native stop codon in primer G10); chain copies: 4; label: 5'-fluorescein (FAM) on strand 1; blunt
recorded metric: pKd
Here pKd is given on a logarithmic scale as minus log10 of the concentration in mol/L.

IN: Endpoint output: pKd of eps operator inverted-repeat SinR box duplex, 21 bp (FAM1721/C-1723) (dsDNA) DNA 1: ATTGTTCTCTAAAGAGAACTT DNA 2: AAGTTCTCTTTAGAGAACAAT . Value?
OUT: 6.46
